Reference source for all entries: patent US8546381B2

# Tested on: rat central imidazoline I2 receptor
# test_description: Central imidazoline I2 radioligand binding ([3H]Idazoxan)
# test_conditions: compound at 1 μM; inhibition of specific [3H]Idazoxan binding
endpoint_label: Imidazoline I2 Central (1 μM), Percentage Inhibition

{"compound": "CN1C2CCC1c1c(n(CC(=O)N3CCOCC3)c3ccc(Cl)cc13)C2 (stereo not drawn)", "observed_result": "−8%"}
{"compound": "CN1C2CCC1c1c(n(CCC(=O)N3CCCC3)c3ccc(Cl)cc13)C2 (stereo not drawn)", "observed_result": "25%"}
{"compound": "Cc1ccc2c(c1)c1c(n2CCc2ccc(F)cc2)CC2CCC1N2C (stereo not drawn)", "observed_result": "52%"}
{"compound": "CN1C2CCC1c1c(n(CCc3ccc(Cl)cc3)c3ccc(Cl)cc13)C2 (stereo not drawn)", "observed_result": "8%"}
{"compound": "CN1C2CCC1c1c(n(CCc3ccc(Cl)cc3)c3ccc(F)cc13)C2 (stereo not drawn)", "observed_result": "6%"}
{"compound": "CN1C2CCC1c1c(n(CCc3ccc(F)cc3)c3ccc(F)cc13)C2 (stereo not drawn)", "observed_result": "33%"}
